Cited source: ChEMBL document CHEMBL3588751

System: Staphylococcus aureus
METHOD NOTES: Antimicrobial activity against Staphylococcus aureus BAA-2313 incubated for 48 hrs by broth dilution method
Format: functional, organism-based
CONDITIONS: BAA-2313, 48 h
METRIC NAME: IC50 (µg/mL)

CC[C@@H](C)C(=O)c1c(O)cc(O)cc1CC(=O)O :: 140
CN[C@@H]1[C@H](O[C@H]2[C@H](O[C@H]3[C@H](O)[C@@H](O)[C@H](N=C(N)N)[C@@H](O)[C@@H]3N=C(N)N)O[C@@H](C)[C@]2(O)C=O)O[C@@H](CO)[C@H](O)[C@H]1O.CN[C@@H]1[C@H](O[C@H]2[C@H](O[C@H]3[C@H](O)[C@@H](O)[C@H](N=C(N)N)[C@@H](O)[C@@H]3N=C(N)N)O[C@@H](C)[C@]2(O)C=O)O[C@@H](CO)[C@H](O)[C@H]1O.O=S(=O)(O)O.O=S(=O)(O)O.O=S(=O)(O)O [STREPTOMYCIN SULFATE] :: 8.5
C[C@@H]1O[C@@H](O[C@@H]2[C@@H](O)[C@H](OCCc3ccc(O)c(O)c3)O[C@H](CO)[C@@H]2OC(=O)/C=C/c2ccc(O)c(O)c2)[C@H](O)[C@H](O)[C@H]1O :: 165
C[C@@H]1O[C@@H](O[C@@H]2[C@@H](O)[C@H](OCCc3ccc(O)c(O)c3)O[C@H](CO)[C@H]2OC(=O)/C=C/c2ccc(O)c(O)c2)[C@H](O)[C@H](O)[C@H]1O [ACETOSIDE] :: 156

====

Tested on: HCT-15
METHOD NOTES: Cytotoxicity against human HCT15 cells assessed as inhibition of cell growth incubated for 48 hrs by SRB assay
Type: functional, cell-based
CONDITIONS: HCT-15, 48 h
METRIC NAME: pIC50
The read-out pIC50 is expressed as -log10 of concentration in moles per litre.

Field: example entries. Status: answers known.
C[C@@H]1O[C@@H](O[C@@H]2[C@@H](O)[C@H](OCCc3ccc(O)c(O)c3)O[C@H](CO)[C@H]2OC(=O)/C=C/c2ccc(O)c(O)c2)[C@H](O)[C@H](O)[C@H]1O [ACETOSIDE] :: 5.56
COc1cccc2c1C(=O)c1c(O)c3c(c(O)c1C2=O)C[C@@](O)(C(=O)CO)C[C@@H]3O[C@H]1C[C@H](N)[C@H](O)[C@H](C)O1 :: 6.96

Now look at this entry.
In: pIC50 for C[C@@H]1O[C@@H](O[C@@H]2[C@@H](O)[C@H](OCCc3ccc(O)c(O)c3)O[C@H](CO)[C@@H]2OC(=O)/C=C/c2ccc(O)c(O)c2)[C@H](O)[C@H](O)[C@H]1O ?
Out: 5.15

====

Tested on: Bacillus subtilis
METHOD NOTES: Antimicrobial activity against Bacillus subtilis ATCC 6633 incubated for 48 hrs by broth dilution method
Format: functional, organism-based
CONDITIONS: ATCC 6633, 48 h
METRIC NAME: IC50 (µg/mL)

C[C@@H]1O[C@@H](O[C@@H]2[C@@H](O)[C@H](OCCc3ccc(O)c(O)c3)O[C@H](CO)[C@H]2OC(=O)/C=C/c2ccc(O)c(O)c2)[C@H](O)[C@H](O)[C@H]1O [ACETOSIDE] :: 98.5
C[C@@H]1O[C@@H](O[C@@H]2[C@@H](O)[C@H](OCCc3ccc(O)c(O)c3)O[C@H](CO)[C@@H]2OC(=O)/C=C/c2ccc(O)c(O)c2)[C@H](O)[C@H](O)[C@H]1O :: 106
CN[C@@H]1[C@H](O[C@H]2[C@H](O[C@H]3[C@H](O)[C@@H](O)[C@H](N=C(N)N)[C@@H](O)[C@@H]3N=C(N)N)O[C@@H](C)[C@]2(O)C=O)O[C@@H](CO)[C@H](O)[C@H]1O.CN[C@@H]1[C@H](O[C@H]2[C@H](O[C@H]3[C@H](O)[C@@H](O)[C@H](N=C(N)N)[C@@H](O)[C@@H]3N=C(N)N)O[C@@H](C)[C@]2(O)C=O)O[C@@H](CO)[C@H](O)[C@H]1O.O=S(=O)(O)O.O=S(=O)(O)O.O=S(=O)(O)O [STREPTOMYCIN SULFATE] :: 4.5
CC[C@@H](C)C(=O)c1c(O)cc(O)cc1CC(=O)O :: 84.1
